- target-or-system: CYP3A4 (Homo sapiens, UniProt P08684)
- Construct: from tissue; host or cells: human liver microsomes (HLM)
- Sequence (P08684 whole entry): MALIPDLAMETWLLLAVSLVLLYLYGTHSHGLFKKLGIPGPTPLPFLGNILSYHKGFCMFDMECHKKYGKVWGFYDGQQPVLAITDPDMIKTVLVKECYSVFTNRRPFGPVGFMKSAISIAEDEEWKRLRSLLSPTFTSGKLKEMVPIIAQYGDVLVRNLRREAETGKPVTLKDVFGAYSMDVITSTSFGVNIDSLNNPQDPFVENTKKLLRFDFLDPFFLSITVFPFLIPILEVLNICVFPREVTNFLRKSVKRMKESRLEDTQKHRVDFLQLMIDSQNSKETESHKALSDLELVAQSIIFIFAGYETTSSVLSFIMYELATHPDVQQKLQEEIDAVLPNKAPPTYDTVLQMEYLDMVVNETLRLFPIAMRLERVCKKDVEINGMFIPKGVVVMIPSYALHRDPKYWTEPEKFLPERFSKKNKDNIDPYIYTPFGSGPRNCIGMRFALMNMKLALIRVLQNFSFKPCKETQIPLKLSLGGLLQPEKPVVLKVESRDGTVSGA
- test-description: Inhibition of human liver microsomal CYP450 enzymes, CYP3A4
- Assay type: in vitro ADME
- test-conditions: human liver microsomes, substrate Testosterone 80 μM; Reference = ketoconazole; read-out: IC50 3A4 (Testosterone)
pIC50: −log10 of the molar value.
metric: pIC50

- compound: "NC(=O)c1cccc2cn(-c3ccc([C@]4(F)CCCNC4)cc3)nc12 (single isomer, unassigned)"
  value: "< 5.00"

====

- test-description: Pharmacokinetic study in rats
- test-conditions: male, Sprague-Dawley, rat, plasma, po, 10 mg/kg, T1/2, SD rats, PO 10 mg/kg
- Protocol: SD rats were used as test animals, and the drug concentrations in plasma at different times after intravenous and intragastric administration of the compounds of examples were determined by LC/MS/MS method(s) to study the pharmacokinetics of the compound in the present disclosure in rats Healthy adult male SD (Sprague-Dawley) rats, 3 animals per test compound, 6-9 weeks old, weighing 250±50 g, were purchased from Shanghai SLAC Laboratory Animal Co., Ltd. […]
In this section we review reported half-life values for a set of molecules.

- molecule: "[2H]C1(c2ccc(-n3cc4cccc(C(N)=O)c4n3)cc2)CCCNC1 (single isomer, unassigned)"
  half-life: "3.18 h"
- molecule: "NC(=O)c1cccc2cn(-c3ccc([C@@H]4CCCNC4)cc3)nc12 [Niraparib, reference compound]"
  half-life: "3.4 h"
